target: HIV Env of isolate T211-9 (clade AG) (HIV); test: cell-based or functional assay
Answer each item with its documented IC80 (µg/ml) with constrains.
Answers are plain numbers, in µg/mL.

Each of the following entries comes with a recorded value; kindly state IC80 (µg/ml) with constrains for each.
1. PGDM1400 (antibody, V domains shown) VH: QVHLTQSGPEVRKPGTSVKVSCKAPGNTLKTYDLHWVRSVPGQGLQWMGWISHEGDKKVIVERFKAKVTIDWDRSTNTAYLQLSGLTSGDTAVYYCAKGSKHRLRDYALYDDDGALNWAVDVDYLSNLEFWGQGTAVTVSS VL: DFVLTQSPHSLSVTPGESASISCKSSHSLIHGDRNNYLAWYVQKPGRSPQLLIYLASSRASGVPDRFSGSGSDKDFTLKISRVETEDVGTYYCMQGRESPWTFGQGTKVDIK
2. ePGDM5 (antibody, V domains shown) VH: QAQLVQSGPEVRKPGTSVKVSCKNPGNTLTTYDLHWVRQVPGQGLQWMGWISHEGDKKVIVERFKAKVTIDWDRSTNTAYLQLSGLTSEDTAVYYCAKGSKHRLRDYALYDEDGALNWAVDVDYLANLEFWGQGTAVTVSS VL: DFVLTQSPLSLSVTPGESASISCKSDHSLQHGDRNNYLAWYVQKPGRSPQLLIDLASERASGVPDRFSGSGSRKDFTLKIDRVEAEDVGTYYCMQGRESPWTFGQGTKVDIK
3. ePGDM9 (antibody, V domains shown) VH: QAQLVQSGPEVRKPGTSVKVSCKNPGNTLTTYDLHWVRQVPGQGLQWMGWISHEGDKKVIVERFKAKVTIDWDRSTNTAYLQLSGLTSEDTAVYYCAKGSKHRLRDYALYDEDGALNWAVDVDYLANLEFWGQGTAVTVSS VL: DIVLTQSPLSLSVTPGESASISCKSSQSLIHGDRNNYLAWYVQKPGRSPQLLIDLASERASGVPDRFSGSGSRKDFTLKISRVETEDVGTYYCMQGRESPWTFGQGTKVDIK
4. ePGDM13 (antibody, V domains shown) VH: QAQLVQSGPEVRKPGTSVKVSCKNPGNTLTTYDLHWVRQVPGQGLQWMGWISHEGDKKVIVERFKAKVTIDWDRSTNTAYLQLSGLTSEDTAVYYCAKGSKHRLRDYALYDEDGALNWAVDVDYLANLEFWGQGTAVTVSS VL: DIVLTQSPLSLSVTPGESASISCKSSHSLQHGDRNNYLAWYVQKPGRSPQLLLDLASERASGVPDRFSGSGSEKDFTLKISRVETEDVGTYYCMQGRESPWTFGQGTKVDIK

0.234
0.099
0.081
0.113
